In this section, each of the compounds is paired with its reported Serratia marcescens (IMP-1) MITC95.
test system: Serratia marcescens expressing IMP-1 (CL5741); assay type: cell-based; details: with imipenem 1 μg/ml; 95% inhibition of bacterial growth
measure: Serratia marcescens (IMP-1) MITC95 (µM)

# compound, recordedValue
records = [
    ("N[C@@H]1CNC[C@@H]1NS(=O)(=O)c1ccc(-c2cccn3ccnc23)c(-c2nn[nH]n2)c1S(N)(=O)=O [Example 328]", 1.563),
    ("Nc1ccc(-c2ccc(S(=O)(=O)NCC3(O)CCNCC3)c(S(N)(=O)=O)c2-c2nn[nH]n2)cn1 [Example 492]", 1.563),
    ("NC[C@@H](O)CNS(=O)(=O)c1ccc(-c2ccc3nccn3c2)c(-c2nn[nH]n2)c1S(N)(=O)=O [Example 420]", 1.563),
    ("C[N+]1(CCN)CC[C@H](NS(=O)(=O)c2ccc(-c3cccc4[nH]c(N)nc34)c(-c3nn[nH]n3)c2S(N)(=O)=O)C1 (some centres unmarked) [Example 249]", 1.563),
    ("C[C@@H](N)CNS(=O)(=O)c1ccc(-c2ccc3nccn3c2)c(-c2nn[nH]n2)c1S(N)(=O)=O [Example 423]", 0.7813),
    ("Nc1nc(-c2cccc(-c3ccc(S(=O)(=O)N[C@@H]4CCNC4)c(S(N)(=O)=O)c3-c3nn[nH]n3)c2)c[nH]1 [Example 428]", 0.7813),
    ("C[C@H](CN)NS(=O)(=O)c1ccc(-c2ccc(N)nc2)c(-c2nn[nH]n2)c1S(N)(=O)=O [Example 393]", 1.042),
    ("Nc1nc2c(-c3ccc(S(=O)(=O)NCC4(O)CNC4)c(S(N)(=O)=O)c3-c3nn[nH]n3)cccc2s1 [Example 387]", 1.563),
]
